Below: a set of entries, each annotated with reported IC50.
molecular target: Sodium-dependent serotonin transporter (Homo sapiens, UniProt P31645); assay: Inhibition of radiolabeled serotonin reuptake at human SERT expressed in HEK293 cells
Sequence (P31645 whole entry): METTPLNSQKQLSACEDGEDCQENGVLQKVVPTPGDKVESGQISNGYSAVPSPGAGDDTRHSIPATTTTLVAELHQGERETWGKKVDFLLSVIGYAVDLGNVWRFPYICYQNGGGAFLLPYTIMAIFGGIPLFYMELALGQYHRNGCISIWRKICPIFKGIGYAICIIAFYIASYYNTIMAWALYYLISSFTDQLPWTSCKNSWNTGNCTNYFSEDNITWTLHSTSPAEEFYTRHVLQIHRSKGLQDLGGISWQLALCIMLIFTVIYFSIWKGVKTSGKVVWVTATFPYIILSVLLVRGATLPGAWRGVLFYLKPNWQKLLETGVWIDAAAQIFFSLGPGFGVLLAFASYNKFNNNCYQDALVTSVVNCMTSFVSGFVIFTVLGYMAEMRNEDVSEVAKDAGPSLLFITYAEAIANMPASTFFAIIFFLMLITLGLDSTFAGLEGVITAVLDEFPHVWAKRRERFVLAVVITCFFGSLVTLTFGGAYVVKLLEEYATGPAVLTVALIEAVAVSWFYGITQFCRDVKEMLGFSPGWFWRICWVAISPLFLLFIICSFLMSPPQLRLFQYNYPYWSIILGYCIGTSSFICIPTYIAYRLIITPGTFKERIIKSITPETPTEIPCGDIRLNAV
Write the answer as a number in nM, unit excluded.

In the examples that follow, each entry is paired with its recorded IC50.
Quick one: IC50 for c1ccc2cc(CO[C@@H]3CCNC3)ccc2c1 ?
20

Continue with c1ccc2cc(CO[C@H]3CCNC3)ccc2c1
23

Switching to the query record.
Quick one: IC50 for CCN([C@@H]1CCNC1)S(=O)(=O)c1ccc2ccccc2c1 ?
30

###

target: Sodium-dependent dopamine transporter (Homo sapiens); test: Inhibition of radiolabeled dopamine reuptake at human DAT expressed in HEK293 cells; type: cell-based
Sequence (Q01959 whole entry): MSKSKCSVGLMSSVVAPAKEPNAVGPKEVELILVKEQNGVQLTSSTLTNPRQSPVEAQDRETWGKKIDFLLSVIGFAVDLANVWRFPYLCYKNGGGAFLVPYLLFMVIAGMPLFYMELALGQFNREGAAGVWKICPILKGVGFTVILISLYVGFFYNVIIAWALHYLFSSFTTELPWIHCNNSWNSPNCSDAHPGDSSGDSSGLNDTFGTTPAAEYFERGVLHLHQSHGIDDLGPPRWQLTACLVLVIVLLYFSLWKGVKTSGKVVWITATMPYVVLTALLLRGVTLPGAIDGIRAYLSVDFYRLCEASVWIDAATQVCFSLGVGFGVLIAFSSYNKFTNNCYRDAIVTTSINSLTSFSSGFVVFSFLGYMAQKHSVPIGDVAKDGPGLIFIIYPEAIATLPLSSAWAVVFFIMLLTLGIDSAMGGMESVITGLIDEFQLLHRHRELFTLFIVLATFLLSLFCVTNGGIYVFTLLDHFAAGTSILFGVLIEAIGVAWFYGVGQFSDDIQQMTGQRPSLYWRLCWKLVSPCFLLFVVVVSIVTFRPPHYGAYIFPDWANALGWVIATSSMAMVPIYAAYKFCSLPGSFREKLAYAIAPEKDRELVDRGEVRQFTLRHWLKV
pIC50: −log10 of the molar value.
Below: a set of entries, each annotated with reported pIC50.

In the examples that follow, each entry is paired with its recorded pIC50.
Quick one: pIC50 for CCN(C1CCNCC1)S(=O)(=O)c1ccc2ccccc2c1 ?
< 5.00

Continue with c1ccc2cc(OCC3CCNCC3)ccc2c1
< 5.15

Continue with CN(Cc1ccc2ccccc2c1)[C@H]1CCNC1
5.11

Continue with CCCCN([C@H]1CCNC1)S(=O)(=O)c1ccc2ccccc2c1
< 4.52

Continue with CC(C)CN(Cc1ccc2ccccc2c1)[C@@H]1CCNC1
7.18

Continue with c1ccc2cc(CO[C@@H]3CCNC3)ccc2c1
5.42

Continue with CCN([C@@H]1CCNC1)S(=O)(=O)c1ccc2ccccc2c1
< 4.52

Switching to the query record.
Quick one: pIC50 for Cc1c(CCN2CCNCC2)ccc2cc(F)ccc12 ?
< 4.51

The reported numbers originate from ChEMBL document CHEMBL1153958.
